These measurements were taken from patent US8916570B2.

Each record here notes measured Ki.
- Study System: human A2A adenosine receptor (Homo sapiens, UniProt P29274)
- Sequence (P29274 whole entry): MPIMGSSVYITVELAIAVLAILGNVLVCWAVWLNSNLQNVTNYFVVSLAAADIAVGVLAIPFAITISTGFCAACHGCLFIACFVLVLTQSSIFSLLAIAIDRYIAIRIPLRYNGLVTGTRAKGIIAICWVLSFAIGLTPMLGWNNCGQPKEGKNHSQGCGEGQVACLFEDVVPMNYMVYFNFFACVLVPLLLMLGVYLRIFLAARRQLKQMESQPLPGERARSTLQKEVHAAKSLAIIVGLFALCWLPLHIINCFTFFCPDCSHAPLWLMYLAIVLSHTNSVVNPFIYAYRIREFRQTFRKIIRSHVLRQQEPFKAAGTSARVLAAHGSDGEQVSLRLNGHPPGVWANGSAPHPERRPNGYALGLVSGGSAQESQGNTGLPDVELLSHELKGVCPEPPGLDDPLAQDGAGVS
- Assay Protocol: Radioligand binding, human A2A AR (Table 1)

Compound | Scale Unit | Ki
CNC(=O)C12CC1C(n1cnc3c(NCc4cccc(Cl)c4)nc(C#CCCC(=O)NCCNCCN)nc31)C(O)C2O (stereo not shown) | nM | 890
CNC(=O)C12CC1C(n1cnc3c(NCc4cccc(Cl)c4)nc(C#CCCC(=O)NCCCN)nc31)C(O)C2O (stereo not shown) | nM | 979
CNC(=O)C12CC1C(n1cnc3c(NC4CCCC4)nc(Cl)nc31)C(O)C2O (stereo not shown) | nM | 3250
CNC(=O)C12CC1C(n1cnc3c(NCc4cccc(Cl)c4)nc(C#CCCCCC(=O)NCCN)nc31)C(O)C2O (stereo not shown) | nM | 277

* * *

- Study System: mouse A3 adenosine receptor (Mus musculus)
- Sequence (Q61618 1-319): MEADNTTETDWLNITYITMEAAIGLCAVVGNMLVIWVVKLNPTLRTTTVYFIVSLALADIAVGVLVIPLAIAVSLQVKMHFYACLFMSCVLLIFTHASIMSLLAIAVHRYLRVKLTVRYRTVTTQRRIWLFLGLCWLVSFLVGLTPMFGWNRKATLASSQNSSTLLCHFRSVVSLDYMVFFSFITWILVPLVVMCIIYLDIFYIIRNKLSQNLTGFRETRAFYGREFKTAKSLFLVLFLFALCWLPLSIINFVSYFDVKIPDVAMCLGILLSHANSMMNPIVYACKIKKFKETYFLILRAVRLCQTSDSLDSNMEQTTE
- Assay Protocol: Competition radioligand binding, mouse A3 AR, HEK293 membranes (Table 1)
- Condition Info: A3 Ki, species M (mouse); [125I]I-AB-MECA
pKi: −log10 of the molar value.
Each record here notes measured pKi.

Molecule | pKi
CNC(=O)C12CC1C(n1cnc3c(NCc4cccc(Cl)c4)nc(C#C[Si](C)(C)C)nc31)C(O)C2O (stereo not shown) [Compound 4] | 8.35
CNC(=O)C12CC1C(n1cnc3c(NCc4cccc(Cl)c4)nc(C#CCCCC(=O)OC)nc31)C(O)C2O (stereo not shown) [Compound 6] | 8.33
CNC(=O)C12CC1C(n1cnc3c(NOC)nc(Cl)nc31)C(O)C2O (stereo not shown) [Compound 21] | 6.06
CNC(=O)C12CC1C(n1cnc3c(NCc4cccc(Cl)c4)nc(SC)nc31)C(O)C2O (stereo not shown) [Compound 20] | 8.92
CNC(=O)C12CC1C(n1cnc3c(NCc4cccc(C#CCCCC(=O)NCCN)c4)nc(Cl)nc31)C(O)C2O (stereo not shown) [Compound 10] | 7.92
CNC(=O)C12CC1C(n1cnc3c(NCC(c4ccccc4)c4ccccc4)nc(Cl)nc31)C(O)C2O (stereo not shown) [Compound 18] | 8.78
CNC(=O)C12CC1C(n1cnc3c(NCc4cccc(Cl)c4)nc(C#CCCCC(=O)NCCN)nc31)C(O)C2O (stereo not shown) [Compound 8] | 8.07

* * *

- Study System: hA3AR (Homo sapiens, UniProt P0DMS8)
- Construct: expressed in transfected cells; host or cells: CHO
- Sequence (P0DMS8 whole entry): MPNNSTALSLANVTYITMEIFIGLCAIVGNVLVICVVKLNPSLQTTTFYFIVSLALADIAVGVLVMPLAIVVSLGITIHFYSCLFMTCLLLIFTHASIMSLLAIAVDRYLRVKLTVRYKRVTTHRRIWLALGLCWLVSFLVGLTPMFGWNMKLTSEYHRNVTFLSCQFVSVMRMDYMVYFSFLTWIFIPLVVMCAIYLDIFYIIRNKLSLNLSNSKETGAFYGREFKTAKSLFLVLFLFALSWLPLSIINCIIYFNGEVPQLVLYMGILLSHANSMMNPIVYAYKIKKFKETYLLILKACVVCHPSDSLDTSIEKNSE
- Assay Protocol: Binding at hA3AR, CHO membranes (Example 7)
- Condition Info: read-out: Affinity (Ki, nM) hA3
Each record here notes measured log10(Ki).
Measure: log10(Ki) (log10 of the value in nM)

Molecule | Value
CNC(=O)[C@@]12C[C@@H]1[C@@H](n1cnc3c(NC)nc(C#Cc4ccc(-c5ccccc5)cc4)nc31)[C@H](O)[C@@H]2O | 0.49
CNC(=O)[C@@]12C[C@@H]1[C@@H](n1cnc3c(NC)nc(C#Cc4ccc(F)cc4)nc31)[C@H](O)[C@@H]2O | -0.28
CNC(=O)[C@@]12C[C@@H]1[C@@H](n1cnc3c(NCc4cccc(Cl)c4)nc(C#Cc4ccc(-c5ccccc5)cc4)nc31)[C@H](O)[C@@H]2O | 0.49
CNC(=O)[C@@]12C[C@@H]1[C@@H](n1cnc3c(NC)nc(C#Cc4ccc(F)c(F)c4)nc31)[C@H](O)[C@@H]2O | 0.22
CNC(=O)[C@@]12C[C@@H]1[C@@H](n1cnc3c(NC)nc(C#Cc4ccc(C(C)(C)C)cc4)nc31)[C@H](O)[C@@H]2O | 1.00
CNC(=O)[C@@]12C[C@@H]1[C@@H](n1cnc3c(NC)nc(C#Cc4cccc(N)c4)nc31)[C@H](O)[C@@H]2O | 0.03
CNC(=O)[C@@]12C[C@@H]1[C@@H](n1cnc3c(NC)nc(C#Cc4cc(F)cc(F)c4)nc31)[C@H](O)[C@@H]2O | 0.22
CNC(=O)[C@@]12C[C@@H]1[C@@H](n1cnc3c(NC)nc(C#Cc4ccccc4F)nc31)[C@H](O)[C@@H]2O | -0.01
CNC(=O)[C@@]12C[C@@H]1[C@@H](n1cnc3c(NC)nc(C#Cc4cccc(F)c4)nc31)[C@H](O)[C@@H]2O | -0.01
CNC(=O)[C@@]12C[C@@H]1[C@@H](n1cnc3c(NC)nc(C#Cc4ccccc4Cl)nc31)[C@H](O)[C@@H]2O | -0.24
CNC(=O)[C@@]12C[C@@H]1[C@@H](n1cnc3c(NC)nc(C#Cc4ccc(Cl)cc4)nc31)[C@H](O)[C@@H]2O | 0.09
CCc1ccc(C#Cc2nc(NC)c3ncn([C@H]4[C@H](O)[C@H](O)[C@]5(C(=O)NC)C[C@H]45)c3n2)cc1 | 0.58
CNC(=O)[C@@]12C[C@@H]1[C@@H](n1cnc3c(NC)nc(C#Cc4cccc(Cl)c4)nc31)[C@H](O)[C@@H]2O | 0.20
CNC(=O)[C@@]12C[C@@H]1[C@@H](n1cnc3c(NCc4cccc(Cl)c4)nc(C#Cc4ccccc4Cl)nc31)[C@H](O)[C@@H]2O | 0.28
CNC(=O)[C@@]12C[C@@H]1[C@@H](n1cnc3c(NCc4cccc(Cl)c4)nc(C#Cc4ccc(N)cc4)nc31)[C@H](O)[C@@H]2O [Compound 332a] | 0.36
CNC(=O)[C@@]12C[C@@H]1[C@@H](n1cnc3c(NC)nc(C#Cc4cccc5ccccc45)nc31)[C@H](O)[C@@H]2O | 0.22
CNC(=O)[C@@]12C[C@@H]1[C@@H](n1cnc3c(NCc4cccc(Cl)c4)nc(C#Cc4ccc5ccc6cccc7ccc4c5c67)nc31)[C@H](O)[C@@H]2O | 1.83
CNC(=O)[C@@]12C[C@@H]1[C@@H](n1cnc3c(NCc4cccc(Cl)c4)nc(C#Cc4cccc(C(=O)O)c4)nc31)[C@H](O)[C@@H]2O | 0.83
CNC(=O)[C@@]12C[C@@H]1[C@@H](n1cnc3c(NC)nc(C#Cc4ccc(Br)cc4)nc31)[C@H](O)[C@@H]2O | -0.04
CNC(=O)[C@@]12C[C@@H]1[C@@H](n1cnc3c(NC)nc(C#Cc4ccc(C(C)=O)cc4)nc31)[C@H](O)[C@@H]2O | 0.41
CNC(=O)[C@@]12C[C@@H]1[C@@H](n1cnc3c(NCc4cccc(Cl)c4)nc(C#Cc4cccc(Cl)c4)nc31)[C@H](O)[C@@H]2O | 0.29
CNC(=O)[C@@]12C[C@@H]1[C@@H](n1cnc3c(NC)nc(C#Cc4cc5ccccc5c5ccccc45)nc31)[C@H](O)[C@@H]2O | 0.54
